These data points were gathered from PubChem BioAssay AID602440.

Target or test system: Sentrin-specific protease 8 (Homo sapiens)
Assay notes: blockers of SENP8 deneddylase activity – biochemical, fluorescence, Nedd8 protein substrate, uHTS, primary screen (AID 602440)
Run parameters: recombinant SENP8, Nedd8 substrate fluorescence; at 20 µM
Screen size: about 360,000 compounds; about 2,300 (0.64%) were called active. No stated cut-off is given here; in the data, active means inhibition mostly above about 40% (no sharp cut-off); inactive means mostly below about 27%. Many of the other results were omitted from the sample, so actives are more common in it than they were.
Select the matching outcome among active, inactive

Previously resolved entries follow.
Compound	Label class
O=C(C[C@H]1C(=O)N(c2ccc(F)c(F)c2)C[C@@H]1Cc1ccccc1)Nc1ccccc1	inactive
CN(C(=O)CN1C(=O)/C(=C/c2ccc(Cl)cc2)SC1=S)C1CCS(=O)(=O)C1 (stereo unspecified)	inactive
Cn1c2ccc(F)cc2c2nnc(NN)nc21	active
CONC(=O)c1cc(OCC(F)(F)F)ccc1OCC(F)(F)F	inactive
CCN(C(=O)COc1cccnc1[N+](=O)[O-])C1CCS(=O)(=O)C1 (stereo unspecified)	inactive

Please turn your attention to the following entry.
Q: Answer briefly: the call reported for O=C1[C@@H](c2ccccc2)[C@@H](c2ccccc2)N1c1cccnc1 in this assay.
Result: inactive

###

Target or test system: Sentrin-specific protease 8 (Homo sapiens) (UniProt Q96LD8)
Sequence (Q96LD8 whole entry, looked up): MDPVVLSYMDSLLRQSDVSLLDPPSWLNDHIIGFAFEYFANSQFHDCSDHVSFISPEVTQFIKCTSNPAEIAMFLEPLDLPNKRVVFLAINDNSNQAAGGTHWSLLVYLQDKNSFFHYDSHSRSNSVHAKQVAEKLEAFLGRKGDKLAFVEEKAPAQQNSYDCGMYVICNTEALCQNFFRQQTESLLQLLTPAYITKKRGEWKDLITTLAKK
Assay notes: blockers of SENP8 deneddylase activity – biochemical, fluorescence, Nedd8 protein substrate, uHTS, primary screen (AID 602440)
Run parameters: recombinant SENP8, Nedd8 substrate fluorescence; at 20 µM; stronger effect = higher value
In all, about 360,000 compounds went through this assay and about 2,300 (0.64%) were called active. This excerpt belongs to a sample that is enriched for actives.
I'd appreciate it if you could supply inhibition values for the items below.
Give bare numbers, in %.

The cases that follow already have their inhibition on record.
Molecule	inhibition (%)
Cc1ccc(N(C(=O)c2ccc(S(=O)(=O)N(C)C)cc2)C2C=CS(=O)(=O)C2)cc1 (stereo not given)	9.3
CC(=O)Nc1ccc(OCCC[n+]2cccc(C(=O)[O-])c2)cc1	7.7
CCn1cc(C(=O)NCC(=O)NC(C)(C)CO)c(=O)c2cc3c(cc21)OCO3	-75.3

Give me inhibition for each of these molecules, listed below.
1. CCCc1nc(SCC(=O)Nc2ccccc2OC)c2c(=O)n(C)c(=O)n(C)c2n1
2. Cc1ccc(S(=O)(=O)N[C@H](CO)C(C)C)cc1
3. CC(C)CC[n+]1ccn(C2=C([O-])c3ccccc3C(=O)/C2=N\S(=O)(=O)c2ccccc2)c1
4. CCC(C)(C)NC(=O)C(c1ccc(O)cc1)N(Cc1ccco1)C(=O)CCC(=O)Nc1ccccn1 (stereo not given)
5. O=C(CN(C(=O)c1nsc(Cl)c1Cl)c1cccc(F)c1)NC1CCCC1
6. NCCCCC(C(=O)O)N(C(=O)OCc1ccccc1)C(=O)OCc1ccccc1 (stereo not given)
7. COc1cccc(N2C(=O)CC(N3CCc4ccccc4C3)C2=O)c1 (stereo not given)
8. COc1cccc(-c2nn(-c3ccccc3)cc2/C=C(\C#N)C(=O)NCCCn2ccnc2)c1

Result:
[10.5, 11.7, 54, -20.6, 4.4, 15.2, 11.5, -266]

###

Target or test system: Sentrin-specific protease 8 (Homo sapiens)
Assay notes: blockers of SENP8 deneddylase activity – biochemical, fluorescence, Nedd8 protein substrate, uHTS, primary screen (AID 602440)
Run parameters: recombinant SENP8, Nedd8 substrate fluorescence; at 20 µM; stronger effect = higher value
About 2,300 (0.64%) of roughly 360,000 compounds were called active. For the sample, actives were picked, then their nearest neighbours and some compounds at random.
Assay readout: inhibition (%)
Answers are plain numbers, in %.

Compound	Value units	inhibition
Nc1ncnc2c1ncn2[C@@H]1O[C@H](C(=O)N2CCCN(Cc3ccccc3F)CC2)[C@@H](O)[C@H]1O	%	18.2

Would you mind listing inhibition for each of the following compounds?
1. COCCCNC(=O)CNC(=S)N(Cc1cc(OC)c(OC)c(OC)c1)C1CCCC1
2. Cc1cc(C)cc(N(CC(=O)NC2CCCC2)C(=O)CCC(=O)Nc2nccs2)c1
3. CN1CCN(/N=C2/C(=O)Nc3ccc([N+](=O)[O-])cc32)CC1

Result:
[4.9, 10.9, 23.5]
